Below are Ki values measured for PAK1 (Homo sapiens, UniProt Q13153).
measured endpoint: Ki (nM)

1. NC1CCN(c2nc(Nc3cc(C4CC4)[nH]n3)c3sccc3n2)CC1 [GNE2] = 22
2. N[C@H]1CC[C@H](CNc2nccc(Nc3cc(C4CC4)[nH]n3)n2)CC1 [GNE3] = 26
3. N[C@H]1CC[C@H](CNc2ncc(Cl)c(Nc3cc(C4CC4)[nH]n3)n2)CC1 [GNE1] = 26
